- Test system: SK-MEL-2
- assay.remarks: NCI tumour cell line growth inhibition, 48 h
Calls of active or inactive are those of the source. No stated cut-off is given here; in the data, active = GI50 up to about 1.1 µM and inactive = higher.
Labels: active, inactive

# molecule, tested.on, class.name
data = [
    ("CC(C)(O)C(O)COc1c2c(cc3oc(=O)ccc13)OCO2 (stereo not drawn)", "SK-MEL-2", "inactive"),
    ("C[C@H]1C(=O)CC[C@]2(C)CCC(C(C)(C)O)CC12O (stereo partly drawn)", "SK-MEL-2", "inactive"),
    ("CC(NS(=O)(=O)c1ccc([N+](=O)[O-])cc1)C(=O)O (stereo not drawn)", "SK-MEL-2", "inactive"),
    ("Nc1ncc2ncn(C3CCC(CO)O3)c2n1 (stereo not drawn)", "SK-MEL-2", "inactive"),
    ("CCCCCOCC(O)CO (stereo not drawn)", "SK-MEL-2", "inactive"),
    ("NC(=O)c1csc(-c2ccc(CO)o2)n1", "SK-MEL-2", "inactive"),
    ("N#C/C(=C1\\SCC(=O)N1c1ccccc1)c1nc2ccccc2[nH]1", "SK-MEL-2", "inactive"),
    ("COc1cc(C(c2cc3c(cc2O)OCO3)N2CCCCC2)cc(OC)c1OC (stereo not drawn)", "SK-MEL-2", "inactive"),
    ("CC(=O)C(C(=O)c1ccc(C)cc1)[C@@H]1OC(C)(C)O[C@@H]1[C@H]1COC(C)(C)O1 (stereo partly drawn)", "SK-MEL-2", "inactive"),
    ("CC(=O)OCCOCBr", "SK-MEL-2", "inactive"),
    ("O=C(Nc1cccc2ccccc12)c1ccccc1", "SK-MEL-2", "inactive"),
    ("CN(C)c1ccc(/C=N/c2ccc(-c3nc4ccccc4[nH]3)cc2)cc1", "SK-MEL-2", "inactive"),
    ("O=[N+]([O-])c1cnn(C2=CNc3ccccc3N=C2)c1", "SK-MEL-2", "inactive"),
    ("O=C(c1ccccc1)C1S(=O)(=O)OCCOS1(=O)=O", "SK-MEL-2", "inactive"),
    ("COc1cc2c(c(OC)c1OC)C(=O)[C@H]1OC(=O)N[C@@H]21", "SK-MEL-2", "inactive"),
    ("CC(=O)NC1=C(Nc2ccc(C)cc2)C(=O)c2ccccc2C1=O", "SK-MEL-2", "inactive"),
    ("O=C(C=P(c1ccccc1)(c1ccccc1)c1ccccc1)c1ccccc1-c1ccccc1C(=O)C=P(c1ccccc1)(c1ccccc1)c1ccccc1", "SK-MEL-2", "active"),
    ("CC1=C2C(=O)[C@H]3[C@@H](CC=C4C[C@@H](O)CC[C@@]43C)[C@@H]2CC[C@]12O[C@@H]1C[C@H](C)CN[C@H]1[C@H]2C", "SK-MEL-2", "inactive"),
    ("CC1(C)OCC(C2OC(OC(=O)c3ccc([N+](=O)[O-])cc3)C3OC(C)(C)OC23)O1 (stereo not drawn)", "SK-MEL-2", "inactive"),
    ("CC(=O)OCC1OC(n2c3c(cc(C#N)c2=O)CCCCCC3)C(OC(C)=O)C(OC(C)=O)C1OC(C)=O (stereo not drawn)", "SK-MEL-2", "inactive"),
    ("O=C(Nc1ccccc1-c1nn(C(=S)Nc2ccccc2)c(=S)n(C(=S)Nc2ccccc2)c1=O)C(F)(F)F", "SK-MEL-2", "inactive"),
    ("CCOC(=O)C12CN(C34CC5CC(CC(C5)C3)C4)CC(C(=O)OCC)(C1=O)C(c1ccccc1)OC2c1ccccc1 (stereo not drawn)", "SK-MEL-2", "inactive"),
    ("Cc1c(-c2coc(-c3ccc([N+](=O)[O-])cc3)n2)c(=O)n(-c2ccccc2)n1C", "SK-MEL-2", "inactive"),
    ("CC(C)(C)c1cc(OCc2nnc3sc(S)nn23)c(Cl)cc1OCc1nnc2sc(S)nn12", "SK-MEL-2", "inactive"),
    ("Clc1ccc(SCCCCCCCCCCSc2ccc(Cl)cc2)cc1", "SK-MEL-2", "inactive"),
    ("CCCCOC(=O)C1CN2C(=NC1(C(F)(F)F)C(F)(F)F)Sc1ccccc12 (stereo not drawn)", "SK-MEL-2", "inactive"),
    ("COc1ccc(/C=C/c2cc(OC)c(OC)c(OC)c2)cc1OC", "SK-MEL-2", "inactive"),
    ("O=C1CSC(=S)N1c1ccco1", "SK-MEL-2", "inactive"),
    ("CCCC(Sc1nc(N)nc2nc[nH]c12)C(=O)O (stereo not drawn)", "SK-MEL-2", "inactive"),
    ("CCc1cccc(NC(=O)c2cc(/C=C/c3ccccc3)nc(S)n2)c1", "SK-MEL-2", "inactive"),
    ("COC(=O)C1=C(C[S+]([O-])c2ccc([N+](=O)[O-])cc2[N+](=O)[O-])C2C=CC1C2 (stereo not drawn)", "SK-MEL-2", "inactive"),
    ("CCOC(=O)C(C)c1nc2cc(N3CCOCC3)c(F)cc2[nH]c1=O (stereo not drawn)", "SK-MEL-2", "inactive"),
    ("COC(=O)/C=C\\C(C#N)(C#N)/N=C/c1cccc(OC)c1", "SK-MEL-2", "inactive"),
    ("CCC/C(Cl)=N/OC(NC(=O)OCC)(C(F)(F)F)C(F)(F)F", "SK-MEL-2", "inactive"),
    ("CC(C)OCN/C(N)=N\\C#N", "SK-MEL-2", "inactive"),
    ("COc1ccc2c(c1)Oc1cc(O)ccc1[C@@H]2c1ccccc1C(=O)NC(C)c1ccccc1 (stereo partly drawn)", "SK-MEL-2", "inactive"),
    ("CNC(=O)O/N=C1\\N(C)CN(c2ccccc2)C12CCN(CCCC(=O)c1ccc(F)cc1)CC2", "SK-MEL-2", "inactive"),
    ("CS(=O)(=O)OC1CN2CCC1CC2 (stereo not drawn)", "SK-MEL-2", "inactive"),
    ("COc1ccccc1/C=C\\C(=O)C1COCN1 (stereo not drawn)", "SK-MEL-2", "inactive"),
    ("CC(=O)OC(C[C@H](C)[C@@H]1CC[C@]2(C)C3=CCC4C(C)(C)C(=O)CC[C@]4(C)C3CCC12C)C1OC1(C)C (stereo partly drawn)", "SK-MEL-2", "inactive"),
    ("C1=C[C@]2(CCC13OCCO3)COc1ccccc12", "SK-MEL-2", "inactive"),
    ("O=c1oc2nc(-c3ccccc3)cc(C(F)(F)F)c2n1Cc1ccccc1", "SK-MEL-2", "inactive"),
    ("CN(C)CC(C)(C)/C(=N\\Nc1ccccc1)c1ccccc1", "SK-MEL-2", "inactive"),
]
